# Test system: thrombocytes
# EXPERIMENTAL DETAILS: ADP-induced aggregation of thrombocytes after intravenous administration (in vivo)
# Parameters: species or system rabbit
# SETUP CONDITIONS: 30.0 mg/kg intravenously, after 15 minutes; control 61.0 ± 1.3
# Experimental: The experiments were carried out on male rabbits of the “Chinchilla” breed having a mass of 2.7±0.3 kg. 18-24 hours prior to the experiment they were deprived of feed while preserving free access to water. […] The measurements of the optical density of the samples were made on two-channel aggregometer of the “Chronolog” Company (USA). […] The index of maximum amplitude of aggregation (MA) in percent of a fall of the plasma optical density under effect of the aggregation inductor was recorded. […]
For each of the compounds below, state its MA - drop of optical density.
Reply numerically in %, unit not repeated.

QUERY: # input compound: `Nc1cnc2c(=O)n([C@@H]3O[C@H](CO)[C@@H](O)[C@H]3O)[nH]c(=O)c2n1.[Na]` ; wanted: its MA - drop of optical density
RESULT: 46.7

QUERY: One more compound: `O=c1[nH][nH]c(=O)c2c(Br)ncnc12.[K]`
RESULT: 43.5

QUERY: One more compound: `Nc1cccc2c(=O)[nH][nH]c(=O)c12.[Na]`
RESULT: 43.2

QUERY: One more compound: `Nc1ccnc2c(=O)n([C@@H]3O[C@H](CO)[C@@H](O)[C@H]3O)[nH]c(=O)c12`
RESULT: 45.3

Reference for the values: patent US8592421B2
